- test_system: human Y4 receptor (Homo sapiens, UniProt P50391)
- Construct: expressed in transfected cells
- Sequence (P50391 whole entry): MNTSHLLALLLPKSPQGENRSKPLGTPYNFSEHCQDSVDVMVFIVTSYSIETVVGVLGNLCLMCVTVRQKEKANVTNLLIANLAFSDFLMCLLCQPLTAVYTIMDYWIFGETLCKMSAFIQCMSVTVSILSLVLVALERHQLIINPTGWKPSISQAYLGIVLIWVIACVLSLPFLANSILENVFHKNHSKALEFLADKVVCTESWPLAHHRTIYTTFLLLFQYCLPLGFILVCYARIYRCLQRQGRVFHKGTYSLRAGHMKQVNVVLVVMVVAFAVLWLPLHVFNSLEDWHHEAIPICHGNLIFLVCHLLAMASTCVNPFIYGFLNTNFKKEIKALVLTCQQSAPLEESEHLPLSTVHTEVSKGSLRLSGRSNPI
- assay_notes: NPY4 cAMP HTRF Agonist Assay (inhibitory cAMP assay, Gi activation by Y4 agonism)
- Type: cell-based
- particulars: human Y4 stable CHO clonal cells, forskolin + IBMX; read-out: NPY4 cAMP HTRF Agonist Assay EC50
pEC50: −log10 of the molar value. Counter-ions that a name gives are not always drawn.
measure: pEC50

Consider the following illustrative entries.
CNC(=O)c1cccc(-c2cnc(N[C@@H]3CCCC[C@H]3N[C@H]3CCCN(c4ccc(C(F)(F)F)cc4)C3)o2)c1
9.70
CCOC(=O)Nc1cccc(-c2cnc(N[C@@H]3CCCC[C@H]3N[C@H]3CCCN(c4cnc(C(F)(F)F)cn4)C3)o2)c1
9.15
c1ccc(-c2cnc(N[C@@H]3CCCC[C@H]3N[C@H]3CCCN(c4ccc(-n5cccn5)cc4)C3)o2)cc1 [Example 62, trifluoroacetate]
7.21

P = Cc1cnn(-c2ccc(N3CCC[C@H](N[C@@H]4CCCC[C@H]4Nc4ncc(-c5ccc(OC(F)(F)F)cc5)o4)C3)cc2)c1 [Example 66, bis-trifluoroacetate]
Q = Cc1cc(OC(F)(F)F)ccc1-c1cnc(N[C@@H]2CCCC[C@H]2N[C@H]2CCCN(c3ccc([N+](=O)[O-])cc3)C2)o1
Query block: Of P and Q , which carries the smaller reported pEC50 figure? Please reply using the label of the selected record.
Result block: P

###

- test_system: human Y4 receptor (Homo sapiens)
- Construct: expressed in transfected cells
- assay_notes: NPY4 cAMP HTRF Agonist Assay (inhibitory cAMP assay, Gi activation by Y4 agonism)
- Type: cell-based
- particulars: human Y4 receptor, cAMP; read-out: hY4 CAMP EC50
pEC50: −log10 of the molar value.
measure: pEC50

Consider the following illustrative entries.
FC(F)(F)Oc1ccc(-c2cnc(N[C@@H]3CCCC[C@H]3N[C@H]3C[C@@H]4C[C@H]3N(c3ncc(C(F)(F)F)cn3)C4)o2)cc1 [Example 423]
6.65
CC(C)(C)OC(=O)Nc1cccc(-c2cnc(N[C@@H]3CCCC[C@H]3N[C@H]3CCCN(c4ccc5ncnn5c4)C3)o2)c1 [Example 488]
6.16
C[C@]1(N[C@H]2CCCC[C@@H]2Nc2cc(-c3cccc(C(N)=O)c3)ccn2)CCCN(c2cnc(C(F)(F)F)nc2)C1 [Example 418]
7.32
NC(=O)c1cccc(-c2cnc(N[C@@H]3CCCC[C@H]3N[C@H]3CCCN(c4ccc5ncnn5c4)C3)o2)c1 [Example 480]
7.77

A = COc1ccc(-c2ccnc(N[C@@H]3CCCC[C@H]3NC3CCCN(c4ccc(-c5nnc(C)o5)cc4)C3)c2)cc1 (stereo partly drawn) [Example 366]
B = O=C(NC1CC1)c1cccc(-c2cnc(N[C@@H]3CCCC[C@H]3N[C@H]3CCCN(c4cnc(C(F)(F)F)nc4)C3)o2)c1 [Example 411]
Query block: Of A and B , which carries the smaller reported pEC50 figure? Please reply using the label of the selected record.
Result block: A

###

- test_system: human Y4 receptor (Homo sapiens, UniProt P50391)
- Construct: expressed in transfected cells
- assay_notes: NPY4 cAMP HTRF Agonist Assay (inhibitory cAMP assay, Gi activation by Y4 agonism)
- Type: cell-based
- particulars: human Y4 receptor, cAMP; read-out: hY4 CAMP EC50
pEC50: −log10 of the molar value.
measure: pEC50

Consider the following illustrative entries.
COC(=O)Nc1cccc(-c2ccnc(N[C@@H]3CCCC[C@H]3N[C@H]3CCCN(c4ccc(-c5noc(C6CC6)n5)cc4)C3)c2)c1 [Example 458]
9.70
COC(=O)c1cccc(-c2cnc(N[C@@H]3CCCC[C@H]3N[C@H]3CCCN(c4ccc5ncnn5c4)C3)o2)c1 [Example 484]
6.51

A = N#Cc1cnc(N2CCCC(N[C@@H]3CCCC[C@H]3Nc3ncc(-c4cccc(C(N)=O)c4)o3)C2)nc1 (stereo partly drawn) [Example 437]
B = CC(C)(C)OC(=O)Nc1cccc(-c2cnc(N[C@@H]3CCCC[C@H]3N[C@H]3CCCN(c4cnc(C(F)(F)F)nc4)C3)o2)c1 [Example 410]
C = CNC(=O)c1cccc(-c2cnc(N[C@@H]3CCCC[C@H]3N[C@H]3CCCN(c4cnc(C(F)(F)F)nc4)C3)o2)c1 [Example 409]
D = COC(=O)Nc1cccc(-c2cnc(N[C@@H]3CCCC[C@H]3N[C@H]3CCCN(c4ccc5nc(C)nn5c4)C3)o2)c1 [Example 490]
Query block: Ascending sort, pEC50. // respond by listing labels in the order requested
Result block: B, A, C, D
(B: 6.49, A: 7.46, C: 8.40, D: 9.00)

###

- test_system: human Y4 receptor (Homo sapiens, UniProt P50391)
- Construct: expressed in transfected cells
- assay_notes: NPY4 cAMP HTRF Agonist Assay (inhibitory cAMP assay, Gi activation by Y4 agonism)
- Format: cell-based
- particulars: human Y4 receptor, cAMP; read-out: hY4 CAMP EC50
pEC50: −log10 of the molar value.
measure: pEC50

CCNC(=O)Nc1cccc(-c2cnc(N[C@@H]3CCCC[C@H]3N[C@H]3CCCN(c4cnc(C(F)(F)F)nc4)C3)o2)c1
8.22
C[C@]1(N[C@@H]2CCCC[C@H]2Nc2cc(-c3cccc(C(N)=O)c3)ccn2)CCCN(c2ncc(C(F)(F)F)cn2)C1
7.55
Cn1nnnc1-c1ccc(N2CCC[C@H](N[C@@H]3CCCC[C@H]3Nc3cc(-c4cccc(C(N)=O)c4)ccn3)C2)cc1
7.68
Cc1nc(-c2ncc(N3CCC[C@H](N[C@@H]4CCCC[C@H]4Nc4cc(-c5ccc(F)c(F)c5)ccn4)C3)cn2)no1
8.70
Cc1nc(-c2ccc(N3C[C@@H]4C[C@H](N[C@@H]5CCCC[C@H]5Nc5ncc(-c6ccc(OC(F)(F)F)cc6)o5)[C@H]3C4)cc2)no1
6.35
COC(=O)Nc1cccc(-c2ccnc(N[C@@H]3CCCC[C@H]3N[C@H]3CCCN(c4ccc(-c5cncnc5)cc4)C3)c2)c1
7.96

a = N#Cc1cnc(N2C[C@@H]3C[C@H](N[C@@H]4CCCC[C@H]4Nc4ncc(-c5cccc(C(N)=O)c5)o4)[C@H]2C3)nc1
b = Cc1nc2ccc(N3CCC[C@H](N[C@@H]4CCCC[C@H]4Nc4ncc(-c5cc(F)c(F)cc5F)o4)C3)cn2n1
Query block: Of a and b , which carries the smaller reported pEC50 figure? Please reply using the label of the selected record.
Result block: a

###

- test_system: human Y4 receptor (Homo sapiens, UniProt P50391)
- Construct: expressed in transfected cells
- assay_notes: NPY4 cAMP HTRF Agonist Assay (inhibitory cAMP assay, Gi activation by Y4 agonism)
- Type: cell-based
- particulars: human Y4 receptor, cAMP; read-out: hY4 CAMP EC50
pEC50: −log10 of the molar value.
measure: pEC50

Cc1nc(-c2ncc(N3CCC[C@H](N[C@@H]4CCCC[C@H]4Nc4cc(-c5cccc(C(N)=O)c5)ccn4)C3)cn2)no1
7.41

1 = Cc1nc2ccc(N3CCC[C@H](N[C@@H]4CCCC[C@H]4Nc4ncc(-c5ccc(F)cc5F)o4)C3)cn2n1
2 = COC(=O)Nc1cccc(-c2ccnc(N[C@@H]3CCCC[C@H]3N[C@H]3CCCN(c4cnc(C(F)(F)F)nc4)C3)c2)c1
3 = Cc1noc(-c2ccc(N3CCC[C@H](N[C@@H]4CCCC[C@H]4Nc4nccc(-c5ccccc5)n4)C3)cc2)n1
4 = N#Cc1ncc(N2CCC[C@H](N[C@@H]3CCCC[C@H]3Nc3cc(-c4cc(F)c(F)cc4F)ccn3)C2)cn1
Query block: hey, can you rank those molecules up there by pEC50? biggest number first please // respond by listing labels in the order requested
Result block: 2, 3, 1, 4

###

- test_system: human Y4 receptor (Homo sapiens)
- Construct: expressed in transfected cells
- assay_notes: NPY4 cAMP HTRF Agonist Assay (inhibitory cAMP assay, Gi activation by Y4 agonism)
- Assay type: cell-based
- particulars: TABLE 4, R2 is Pyridinyl-CN; read-out: hY4 CAMP EC50
pEC50: −log10 of the molar value.
measure: pEC50

N#Cc1ccc(N2CCC[C@H](N[C@@H]3CCCC[C@H]3Nc3cc(-c4cccc(C(N)=O)c4)ccn3)C2)nc1
6.89

A = N#Cc1ccc(N2C[C@@H]3C[C@H](N[C@@H]4CCCC[C@H]4Nc4cc(-c5cccc(C(N)=O)c5)ccn4)[C@H]2C3)nc1
B = CC(C)(O)c1cccc(-c2ccnc(N[C@@H]3CCCC[C@H]3N[C@H]3CCCN(c4ccc(C#N)nc4)C3)c2)c1
Query block: Of A and B , which carries the smaller reported pEC50 figure? Please reply using the label of the selected record.
Result block: A
(A: 6.41, B: 6.98)

###

- test_system: human Y4 receptor (Homo sapiens)
- Construct: expressed in transfected cells
- assay_notes: NPY4 cAMP HTRF Agonist Assay (inhibitory cAMP assay, Gi activation by Y4 agonism)
- Type: cell-based
- particulars: human Y4 receptor, cAMP; read-out: hY4 CAMP EC50
measure: EC50 (nM)

Consider the following illustrative entries.
Cc1nnc(-c2ccc(N3CCC[C@H](N[C@@H]4CCCC[C@H]4Nc4cc(Br)ccn4)C3)cc2)o1
318
C[C@]1(N[C@@H]2CCCC[C@H]2Nc2ncc(-c3cccc(C(N)=O)c3)o2)CCCN(c2ccc(C(=O)NC(=O)C3CC3)nc2)C1
6
Cc1nc(-c2ccc(N3C[C@@H]4C[C@H](N[C@@H]5CCCC[C@H]5Nc5cc(-c6cccc(C(N)=O)c6)ccn5)[C@H]3C4)cc2)no1
1

a = N#Cc1ccnc(N[C@@H]2CCCC[C@H]2N[C@H]2CCCN(c3cnc(C(F)(F)F)nc3)C2)c1
b = CNC(=O)c1cccc(-c2cnc(N[C@@H]3CCCC[C@H]3N[C@H]3CCCN(c4ccc5nc(C)nn5c4)C3)o2)c1
Query block: Of a and b , which carries the smaller reported EC50 figure? Please reply using the label of the selected record.
Result block: b
(b: 4 nM, a: 600 nM)
